The values you see were collected from ChEMBL document CHEMBL1129258.

# test target: DNA gyrase (Staphylococcus aureus) (UniProt P0A0K8+P20831)
# Sequence (P0A0K8 2-644 limits assumed): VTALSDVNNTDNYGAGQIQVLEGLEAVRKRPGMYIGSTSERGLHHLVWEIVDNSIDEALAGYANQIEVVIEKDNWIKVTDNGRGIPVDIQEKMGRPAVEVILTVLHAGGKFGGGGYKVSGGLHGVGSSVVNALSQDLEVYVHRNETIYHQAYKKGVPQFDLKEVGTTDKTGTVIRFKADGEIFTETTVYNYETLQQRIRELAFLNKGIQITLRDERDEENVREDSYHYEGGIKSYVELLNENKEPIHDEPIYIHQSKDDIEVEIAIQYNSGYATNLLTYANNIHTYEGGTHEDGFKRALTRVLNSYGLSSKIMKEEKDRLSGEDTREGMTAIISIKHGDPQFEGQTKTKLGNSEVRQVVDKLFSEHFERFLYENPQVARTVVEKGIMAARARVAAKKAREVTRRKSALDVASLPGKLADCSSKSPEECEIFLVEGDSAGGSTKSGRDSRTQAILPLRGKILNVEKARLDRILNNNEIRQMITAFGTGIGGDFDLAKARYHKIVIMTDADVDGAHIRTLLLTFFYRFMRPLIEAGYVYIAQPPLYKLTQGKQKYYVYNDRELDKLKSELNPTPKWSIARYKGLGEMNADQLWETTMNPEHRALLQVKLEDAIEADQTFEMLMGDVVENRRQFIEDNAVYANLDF
# Sequence (P20831 whole entry partner): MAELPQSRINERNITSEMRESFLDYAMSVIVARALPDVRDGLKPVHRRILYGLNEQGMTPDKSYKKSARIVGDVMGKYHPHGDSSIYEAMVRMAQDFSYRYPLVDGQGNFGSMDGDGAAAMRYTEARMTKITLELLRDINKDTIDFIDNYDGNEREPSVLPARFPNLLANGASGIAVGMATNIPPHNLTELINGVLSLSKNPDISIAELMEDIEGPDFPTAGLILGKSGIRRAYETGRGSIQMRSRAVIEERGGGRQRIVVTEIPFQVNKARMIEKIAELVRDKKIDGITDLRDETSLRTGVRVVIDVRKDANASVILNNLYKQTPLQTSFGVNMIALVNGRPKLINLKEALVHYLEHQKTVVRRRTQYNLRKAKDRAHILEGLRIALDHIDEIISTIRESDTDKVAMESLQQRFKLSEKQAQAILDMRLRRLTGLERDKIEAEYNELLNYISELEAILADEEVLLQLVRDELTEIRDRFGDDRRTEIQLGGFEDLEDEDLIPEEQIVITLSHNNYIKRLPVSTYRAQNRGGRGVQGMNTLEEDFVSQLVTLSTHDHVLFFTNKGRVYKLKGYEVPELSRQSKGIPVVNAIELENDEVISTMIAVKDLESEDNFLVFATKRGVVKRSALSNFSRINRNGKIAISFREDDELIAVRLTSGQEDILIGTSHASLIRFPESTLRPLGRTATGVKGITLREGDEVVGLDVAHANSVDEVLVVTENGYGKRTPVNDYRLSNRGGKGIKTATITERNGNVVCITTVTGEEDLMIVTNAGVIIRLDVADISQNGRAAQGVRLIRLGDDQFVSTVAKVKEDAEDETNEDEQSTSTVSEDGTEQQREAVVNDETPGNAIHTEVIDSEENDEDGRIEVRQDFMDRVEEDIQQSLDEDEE
# method description: In vitro antibacterial activity against gram-positive organism Staphylococcus aureus 1775
# Format: functional
MIC listing for selected compounds.
readout label: MIC (µg/mL)

1. Cc1c(N2CC[C@@]3(C[C@H]3N)C2)c(F)cn2c(=O)c(C(=O)O)cc(C3CC3)c12 :: 0.39
2. Cc1c(N2C[C@@H]3CCCN[C@@H]3C2)c(F)cn2c(=O)c(C(=O)O)cc(C3CC3)c12 (stereo in doubt; 45n) :: 0.78
3. Cc1c(N2CC[C@@H]([C@@H](C)N)C2)c(F)cn2c(=O)c(C(=O)O)cc(C3CC3)c12 :: 0.39
4. Cc1c(N2CC[C@@]3(C[C@@H]3N)C2)c(F)cn2c(=O)c(C(=O)O)cc(C3CC3)c12 :: 0.39
5. COc1ccc(-c2cc(C(=O)O)c(=O)n3cc(F)c(N4CCC(N)C4)nc23)cc1 (stereo unspecified) :: 100
6. Cc1c(N2C[C@H]3CCC[C@@H](N)[C@H]3C2)c(F)cn2c(=O)c(C(=O)O)cc(C3CC3)c12 :: 0.1
7. Cc1c(N2CCC(O)C2)c(F)cn2c(=O)c(C(=O)O)cc(C3CC3)c12 (stereo unspecified) :: 0.2
8. Cc1c(N2CC[C@@H]([C@H](C)N)C2)c(F)cn2c(=O)c(C(=O)O)cc(C3CC3)c12 :: 0.05
9. NC1CCN(c2c(F)cn3c(=O)c(C(=O)O)cc(C4CC4)c3c2Cl)C1 (stereo unspecified) :: 6.2
10. Cc1c(N2C[C@@H]3CCN[C@@H]3C2)c(F)cn2c(=O)c(C(=O)O)cc(C3CC3)c12 (stereo in doubt; (S,S)45o) :: 3.1
11. CC(=O)N[C@H]1C[C@H](C)N(c2nc3c(-c4ccc(F)cc4F)cc(C(=O)O)c(=O)n3cc2F)C1 :: 25
12. CNC1CCN(c2c(F)cn3c(=O)c(C(=O)O)cc(C4CC4)c3c2C)C1 (stereo unspecified) :: 1.56
13. Cc1c(N2CCC(C)(N)C2)c(F)cn2c(=O)c(C(=O)O)cc(C3CC3)c12 (stereo unspecified) :: 1.56
14. Cc1c(N2CC[C@@H](N)C2)c(F)cn2c(=O)c(C(=O)O)cc(C3CC3)c12 :: 1.56
15. Cc1c(N2C[C@@H]3[C@@H](N)[C@@H]3C2)c(F)cn2c(=O)c(C(=O)O)cc(C3CC3)c12 :: 1.56
16. Cc1c(N2C[C@@H](N)C[C@@H]2C)c(F)cn2c(=O)c(C(=O)O)cc(C3CC3)c12 :: 1.56
17. Cc1c(N2CCC(CN)C2)c(F)cn2c(=O)c(C(=O)O)cc(C3CC3)c12 (stereo unspecified) :: 0.39
18. Cc1c(N2CC[C@@H]3CNC[C@@H]32)c(F)cn2c(=O)c(C(=O)O)cc(C3CC3)c12 :: 6.2
19. CN1CCN(c2nc3c(-c4ccc(F)cc4)cc(C(=O)O)c(=O)n3cc2F)CC1 :: 25
20. Cc1c(N2C[C@@H](N)C[C@H]2C)c(F)cn2c(=O)c(C(=O)O)cc(C3CC3)c12 :: 0.78
21. Cc1c(N2CC(N)C2)c(F)cn2c(=O)c(C(=O)O)cc(C3CC3)c12 :: 6.2
22. Cc1c(N2CCC(N)C2)c(F)cn2c(=O)c(C(=O)O)cc(C3CC3)c12 (stereo unspecified) :: 1.56
23. CCc1c(N2CCC(N)C2)c(F)cn2c(=O)c(C(=O)O)cc(C3CC3)c12 (stereo unspecified) :: 6.2
24. Cc1c(-n2ccnc2)c(F)cn2c(=O)c(C(=O)O)cc(C3CC3)c12 :: 6.2
25. C[C@H]1C[C@H](N)CN1c1nc2c(-c3ccc(F)cc3F)cc(C(=O)O)c(=O)n2cc1F :: 50
26. Cc1c(N2CCC(N(C)C)C2)c(F)cn2c(=O)c(C(=O)O)cc(C3CC3)c12 (stereo unspecified) :: 0.78
27. CN1CCN(c2nc3c(C4CC4)cc(C(=O)O)c(=O)n3cc2F)CC1 :: 100
28. Cc1c(N2C[C@@H]3CCN[C@@H]3C2)c(F)cn2c(=O)c(C(=O)O)cc(C3CC3)c12 (stereo in doubt; 45o) :: 0.39
29. Cc1c(N2C[C@@H]3C[C@H]2CN3)c(F)cn2c(=O)c(C(=O)O)cc(C3CC3)c12 :: 6.2
30. Cc1c(N2C[C@@H](C)N[C@@H](C)C2)c(F)cn2c(=O)c(C(=O)O)cc(C3CC3)c12 :: 6.2
31. Cc1c(N2CCC(n3ccnn3)C2)c(F)cn2c(=O)c(C(=O)O)cc(C3CC3)c12 (stereo unspecified) :: 0.78
